meta.source: patent US4061760A

Assay: in vivo
Conditions: ip
measuredQuantity: LD50 (mg/kg)
Answers are plain numbers, in mg/kg.

compound | LD50 [mg/kg]
O=C1NC(c2ccccc2)(c2ccncc2)C(=O)N1CCCN1CCC(c2ccccc2)CC1 (stereo not drawn) | 61
O=C1NC(=O)C(c2ccccc2)(c2ccncc2)N1 (stereo not drawn) | 240
O=C1NC(c2ccccc2)(c2ccccn2)C(=O)N1CCCN1CCC(c2ccccc2)CC1 (stereo not drawn) | 136
O=C1NC(c2ccccc2)(c2cccnc2)C(=O)N1CCCN1CCC(c2ccccc2)CC1 (stereo not drawn) | 156
O=C1NC(=O)C(c2ccccc2)(c2ccccn2)N1 (stereo not drawn) | 186

Consider the additional compound presented here.
Which LD50 is listed for O=C1NC(c2ccccc2)(c2ccccn2)C(=O)N1CCCN1CCC(O)(c2ccccc2)CC1 (stereo not drawn) ?
65
